- Study system: T1, Epitope 4 of IP-10 (amino acids 61-98), recombinant segment expressed in E. coli from pET41 (human)
- T1 construct: Segment cloned EcoRI/XhoI into PET41 vector and tested as lysate of the expressing E. coli in western blot; any tags from the vector are not described; not shown: vector-coded fusion part of pET41 (GST is run as the negative control)
- T1 chain: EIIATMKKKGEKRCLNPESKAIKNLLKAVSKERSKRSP
- Protocol description: western blot on recombinant IP-10 segments expressed in E. coli
Quantity kind: binding result

1) anti-IP-10 monoclonal antibody #77 (antibody, V domains shown, Mouse monoclonal antibody from a hybridoma; also called clone #77; clone #77 monoclonal antibody) VH: QIQLVHSGPELKKPGETVKISCKASGYTFTDYSMHWVKQAPGKGLKWMGWINTETGEPTYADDFKGRFAFSLETSASTAYLQINNLKNEDTATYFCARMYDYSYYFDYWGQGTTLTVSS VL: DIQMTQSPASLSVSVGETVTITCRASENIYSNLAWYQQKQGKSPQLLVYAATNLADGVPSRFSGSGSGTQYSLKINSLQSEDFGSYYCQHFWGTPYTFGGGTKLEIKR ... binds
